Recorded measurements of drug sensitivity score, one per entry
system: HS-PSS; test: drug sensitivity score (DSS, CellTiter-Glo viability, 72 h) (DSS (dimensionless)); higher = more sensitive; extreme values may be limits of the assay
Observed Property: drug sensitivity score

{"Compound": "O=C(c1ccc(/C=C/c2n[nH]c3ccccc23)cc1)N1CCNCC1 [KW-2449] (max concentration tested 2500 nM)", "Obs Value": 0}
{"Compound": "CCOc1ccn(-c2ccc(F)cc2)c(=O)c1C(=O)Nc1ccc(Oc2ccnc(N)c2Cl)c(F)c1 (max concentration tested 2500 nM)", "Obs Value": 1.43}
{"Compound": "Cc1ccc(NC(=O)c2ccc(CN3CC[C@H](N(C)C)C3)c(C(F)(F)F)c2)cc1Nc1nccc(-c2cncnc2)n1 [Bafetinib] (max concentration tested 1000 nM)", "Obs Value": 0}
{"Compound": "CCN1CCN(c2ccc(Nc3cc(N(C)C(=O)Nc4c(Cl)c(OC)cc(OC)c4Cl)ncn3)cc2)CC1 [NVP-BGJ398] (max concentration tested 1000 nM)", "Obs Value": 0}
{"Compound": "CNC(=O)c1ccc(N2C(=S)N(c3ccc(C#N)c(C(F)(F)F)c3)C(=O)C2(C)C)cc1F [Enzalutamide] (max concentration tested 10000 nM)", "Obs Value": 0}
{"Compound": "NCC(=O)Nc1ccc(-n2nc(C(F)(F)F)cc2-c2ccc3c(ccc4ccccc43)c2)cc1 (max concentration tested 25000 nM)", "Obs Value": 4.86}
{"Compound": "O=C(c1ccc(F)c(F)c1Nc1ccc(I)cc1F)N1CC(O)([C@@H]2CCCCN2)C1 [Cobimetinib] (max concentration tested 1000 nM)", "Obs Value": 4.46}
{"Compound": "O=C(O)c1ccc(O)c2ncccc12 [IOX-1] (max concentration tested 100000 nM)", "Obs Value": 0}
{"Compound": "Nc1cccc2c1C(=O)N(C1CCC(=O)NC1=O)C2=O (stereo not drawn) [Pomalidomide] (max concentration tested 10000 nM)", "Obs Value": 0}
{"Compound": "CC[C@H](C)C(=O)O[C@H]1C[C@H](O)C=C2C=C[C@H](C)[C@H](CC[C@@H](O)C[C@@H](O)CC(=O)O)[C@H]21 [Pravastatin] (max concentration tested 10000 nM)", "Obs Value": 1.44}
{"Compound": "C/C(=C\\c1csc(C)n1)[C@@H]1C[C@@H]2O[C@]2(C)CCC[C@H](C)[C@H](O)[C@@H](C)C(=O)C(C)(C)[C@@H](O)CC(=O)N1 [Ixabepilone] (max concentration tested 1000 nM)", "Obs Value": 1.51}
{"Compound": "Cc1cc2c(F)c(Oc3ncnn4cc(OC[C@@H](C)O)c(C)c34)ccc2[nH]1 [Brivanib] (max concentration tested 1000 nM)", "Obs Value": 0}
{"Compound": "O=C(c1ccc(OCCN2CCCCC2)cc1)c1c(-c2ccc(O)cc2)sc2cc(O)ccc12 [Raloxifene] (max concentration tested 10000 nM)", "Obs Value": 4.8}
{"Compound": "Cn1cnc2c(F)c(Nc3ccc(Br)cc3Cl)c(C(=O)NOCCO)cc21 [Selumetinib] (max concentration tested 10000 nM)", "Obs Value": 0.02}
{"Compound": "CC(C)[C@H]1C(=O)N[C@@H](CCCNC(=N)N)C(=O)NCC(=O)N[C@@H](CC(=O)O)C(=O)N[C@H](Cc2ccccc2)C(=O)N1C [Cilengitide] (max concentration tested 10000 nM)", "Obs Value": 0}
{"Compound": "O=C(/C=C\\n1cnc(-c2cc(C(F)(F)F)cc(C(F)(F)F)c2)n1)NNc1ccccn1 [Verdinexor] (max concentration tested 1000 nM)", "Obs Value": 5.78}
{"Compound": "CC(C)c1cc(-c2n[nH]c(=O)n2-c2ccc3c(ccn3C)c2)c(O)cc1O [Ganetespib] (max concentration tested 1000 nM)", "Obs Value": 13.9}
{"Compound": "CN(C)CCN1C(=O)c2cccc3cc(N)cc(c23)C1=O [Amonafide] (max concentration tested 10000 nM)", "Obs Value": 6.59}
{"Compound": "Cc1[nH]c2ccccc2c1CCNCc1ccc(/C=C/C(=O)NO)cc1 [Panobinostat] (max concentration tested 1000 nM)", "Obs Value": 14.1}
{"Compound": "Nc1nc2[nH]cc(CCc3ccc(C(=O)N[C@@H](CCC(=O)O)C(=O)O)cc3)c2c(=O)[nH]1 [Pemetrexed] (max concentration tested 10000 nM)", "Obs Value": 0}
{"Compound": "COc1ccc(C2=N[C@@H](c3ccc(Cl)cc3)[C@@H](c3ccc(Cl)cc3)N2C(=O)N2CCNC(=O)C2)c(OC(C)C)c1 [Nutlin-3] (max concentration tested 10000 nM)", "Obs Value": 1.69}
{"Compound": "Nc1ccn([C@@H]2O[C@H](CO)[C@@H](O)[C@@H]2O)c(=O)n1 [Cytarabine] (max concentration tested 10000 nM)", "Obs Value": 10.2}
{"Compound": "Cc1c(Cn2c(C)nc3c(C(=O)O)cc(N4CCOCC4)cc32)cccc1C(F)(F)F (max concentration tested 10000 nM)", "Obs Value": 1.06}
